biological target: Peroxisome proliferator-activated receptor gamma (Homo sapiens); assay: qHTS assay to identify small molecule agonists of the peroxisome proliferator-activated receptor gamma (PPARg) signaling pathway (AID 743094); conditions: HEK293H PPARg-UAS-bla, beta-lactamase FRET ratio, 17 h; series mostly up to 57 µM; for activation: % is set by controls: 0 for no effect and ±100 for the full control effect
Records with an inconclusive call do not appear. Activity calls are given as the source filed them. Calls come from the whole dose curve; as a rule, active = well fitted activation curve with a large enough effect in the signal ratio in the repeat runs (not every such curve was filed as active); inconclusive = weak or mixed curves, or effect the other way; inactive = no such curve, though single readings can be large or run the other way; the % refers to the signal ratio.
Thanks in advance; please answer with one of these: active, inactive

Compound | Tested On | Classification
CCCCCC/C=C/C(=O)OC | Peroxisome proliferator-activated receptor gamma (Homo sapiens) | inactive
C=C(C)c1cccc(C(C)(C)N=C=O)c1 | Peroxisome proliferator-activated receptor gamma (Homo sapiens) | inactive
COC(=O)/C=C\C(=O)O | Peroxisome proliferator-activated receptor gamma (Homo sapiens) | inactive
O/N=C/C=N/O | Peroxisome proliferator-activated receptor gamma (Homo sapiens) | inactive

input: Could you check what this test reported for `CC1(C)Cc2cccc(N)c2O1` ?
output: inactive

input: Could you check what this test reported for CC(=O)C1C(=O)C=C(C)OC1=O (stereo not drawn) ?
output: inactive

input: Could you check what this test reported for `O=C1CCCCO1` ?
output: inactive

input: Could you check what this test reported for `N#Cc1cscn1` ?
output: active

input: Could you check what this test reported for `ONc1ccccc1` ?
output: inactive

input: Could you check what this test reported for `CC(C)c1ccc(C=O)cc1` ?
output: inactive

input: Could you check what this test reported for `CC(C)=CCC[C@@](C)(O)[C@H]1CC=C(C)CC1` ?
output: inactive

input: Could you check what this test reported for `O=[N+]([O-])c1c(Cl)cc(Cl)cc1Cl` ?
output: inactive

input: Could you check what this test reported for `O=C1OCCO1` ?
output: inactive

* * *

molecular target: Estrogen receptor (Homo sapiens); assay: qHTS assay to identify small molecule agonists of the estrogen receptor alpha (ER-alpha) signaling pathway using the BG1 cell line (AID 743079); conditions: BG1Luc4E2 cells, ERE-luciferase agonist, 22 h; series mostly up to 70.3 µM; note: nearly all actives have a fitted effect of over 20% in size; for activation: % is set by controls: 0 for no effect and ±100 for the full control effect
Inconclusive results are not listed. Active and inactive are the calls of the source. The call rests on the fitted dose curve; in most records, active means well fitted activation curve with a large enough effect in the repeat runs; inconclusive means weak or mixed curves, or effect the other way; inactive means no such curve, though single readings can be large or run the other way.
Thanks in advance; please answer with one of these: Y = active, N = inactive

Compound | Tested On | Classification
CCCCCCCCCCCCCCCCCC#N | Estrogen receptor (Homo sapiens) | N

input: Could you check what this test reported for `C=C(C)c1cccc(C(C)(C)N=C=O)c1` ?
output: N

input: Could you check what this test reported for `Cc1ccc(N)cc1S(=O)(=O)O` ?
output: N

input: Could you check what this test reported for OC1OCCOC1O (stereo not given) ?
output: N

input: Could you check what this test reported for `c1ccc2cnccc2c1` ?
output: N

input: Could you check what this test reported for `CC1(C)O[C@H]2CC(=O)OC[C@]23[C@H]2CC[C@@]4(C)[C@H](c5ccoc5)OC(=O)[C@H]5O[C@]54[C@]2(C)C(=O)C[C@@H]13` ?
output: Y

input: Could you check what this test reported for `CC(=O)Nc1ccc(OC(=O)c2ccccc2OC(C)=O)cc1` ?
output: N

input: Could you check what this test reported for `CC(=O)CCc1ccc(OC(C)=O)cc1` ?
output: N

* * *

Target: Cytochrome P450 2C9 (Homo sapiens)
Test: Cytochrome P450 Family 2 Subfamily C Member 9 (CYP2C9) small molecule antagonists: luciferase reporter qHTS assay (AID 1671198); note: % is set by controls: 0 for no effect and ±100 for the full control effect; nearly all actives have a fitted effect of over 50% in size
Conditions: P450-Glo CYP2C9 enzyme assay, luciferin luminescence; series mostly up to 115 µM
From the text: U.S. Tox21 Program National Center for Advancing Translational Sciences [NCATS] U.S. Environmental Protection Agency [EPA] National Institutes of Environmental Health Sciences [NIEHS] National Toxicology Program [NTP] U.S. Food and Drug Administration [FDA] […] The luciferin products formed are detected with a luciferin detection reagent, and the amount of light produced is proportional to CYP activity. […]
Results filed as inconclusive are left out. Calls of active or inactive are those of the source. Calls come from the whole dose curve; as a rule, active = well fitted inhibition curve with a large enough effect in the repeat runs; inconclusive = weak or mixed curves; inactive = no such curve, though single readings can be large or run the other way.
Thanks in advance; please answer with one of these: 1 for active, 0 for inactive

Compound | Classification
CO[C@@]1(NC(=O)Cc2cccs2)C(=O)N2C(C(=O)O)=C(COC(N)=O)CS[C@@H]21 | 0

input: Could you check what this test reported for CN(C)CCOC(=O)C(c1ccccc1)C1(O)CCCC1 (stereo not given) ?
output: 0

input: Could you check what this test reported for `OCC1(CO)COCOC1` ?
output: 0

input: Could you check what this test reported for `CCC(=O)CC` ?
output: 0

* * *

assay: qHTS assay to identify small molecule antagonists of the thyroid receptor (TR) signaling pathway - cell viability counter screen (AID 743064); details: GH3.TRE-Luc viability, CellTiter-Fluor, 24 h; series mostly up to 70.3 µM; note: % is set by controls: 0 for no effect and ±100 for the full control effect; nearly all actives have a fitted effect of over 50% in size
Results filed as inconclusive are left out. Active and inactive are the calls of the source. The call rests on the fitted dose curve; in most records, active means well fitted cell-killing curve with a large enough effect in the repeat runs; inconclusive means weak or mixed curves, or effect the other way; inactive means no such curve, though single readings can be large or run the other way.
Thanks in advance; please answer with one of these: active, inactive

Consider the worked cases shown below.
Compound | Classification
Cc1c(N)cccc1Cl | inactive
O=Cc1cc2ccccc2o1 | inactive

Please find the next compound below.
input: Could you check what this test reported for `CCCCCc1cccc(=O)o1` ?
output: inactive

* * *

assay: qHTS assay to identify small molecule antagonists of the retinoid-related orphan receptor gamma (ROR-gamma) signaling pathway - cell viability counter screen (AID 1159520); conditions: Tet-on RORgamma CHO cells viability, ATP luminescence, 16 h; series mostly up to 92.4 µM; note: % is set by controls: 0 for no effect and ±100 for the full control effect; nearly all actives have a fitted effect of over 50% in size
Results filed as inconclusive are left out. Activity calls are given as the source filed them. The call rests on the fitted dose curve; in most records, active means well fitted cell-killing curve with a large enough effect in the repeat runs; inconclusive means weak or mixed curves, or effect the other way; inactive means no such curve, though single readings can be large or run the other way.
Value Kind: activity, negative = cytotoxicity

Some entries whose results are on file:
Compound | activity, negative = cytotoxicity
CC1CC(=O)CC(C)(C)C1 (stereo not given) | inactive
Cn1c(=O)c2c(ncn2CCO)n(C)c1=O | inactive
CC(=O)c1cc(C)oc1C | inactive
CCC/C=C(\C=O)CC | inactive
C=CC(=O)OCC1CCCO1 (stereo not given) | inactive

For every listed record, write down its activity, negative = cytotoxicity.
1. Cc1ccc2c(c1)C(=O)c1ccccc1C2=O
2. CC1=C(O)C(=O)C(C)O1 (stereo not given)
3. CN(C)CC/C=C1/c2ccccc2COc2ccc(CC(=O)O)cc21

output:
1: inactive; 2: inactive; 3: inactive

For every listed record, write down its activity, negative = cytotoxicity.
1. CCCC(=O)OCCC(C)CCC=C(C)C (stereo not given)
2. O=C(O)CONC(=O)c1ccccc1

output:
1: inactive; 2: inactive

* * *

Molecular target: Cytochrome P450 2D6 (Homo sapiens)
Assay: Cytochrome P450 Family 2 Subfamily D Member 6 (CYP2D6) small molecule antagonists: luciferase reporter qHTS assay (AID 1671196); note: nearly all actives have a fitted effect of over 50% in size
Conditions: P450-Glo CYP2D6 enzyme assay, luciferin luminescence, 1 h; series mostly up to 115 µM
Text: U.S. Tox21 Program National Center for Advancing Translational Sciences [NCATS] U.S. Environmental Protection Agency [EPA] National Institutes of Environmental Health Sciences [NIEHS] National Toxicology Program [NTP] U.S. Food and Drug Administration [FDA] […] The luciferin products formed are detected with a luciferin detection reagent, and the amount of light produced is proportional to CYP activity. […]
Inconclusive results are not listed. Calls of active or inactive are those of the source. Calls follow the shape of the dose curve; as a rule, active = well fitted inhibition curve with a large enough effect in the repeat runs; inconclusive = weak or mixed curves; inactive = no such curve, though single readings can be large or run the other way.
Thanks in advance; please answer with one of these: label 1 for active, label 0 for inactive

Consider the worked cases shown below.
Compound | Tested On | Classification
O=[N+]([O-])c1c(Cl)cc(Cl)cc1Cl | Cytochrome P450 2D6 (Homo sapiens) | label 0
COc1cc2c(cc1OC)CN(C(=O)[C@H](C)N[C@@H](CCc1ccccc1)C(=O)O)[C@H](C(=O)O)C2 | Cytochrome P450 2D6 (Homo sapiens) | label 0
Cc1cccc(Cl)c1 | Cytochrome P450 2D6 (Homo sapiens) | label 0
C=CCCCCCCCC | Cytochrome P450 2D6 (Homo sapiens) | label 0

input: Could you check what this test reported for `C[Si]1(C)O[Si](C)(C)O[Si](C)(C)O[Si](C)(C)O[Si](C)(C)O1` ?
output: label 0

input: Could you check what this test reported for `COS(=O)(=O)O` ?
output: label 0

input: Could you check what this test reported for `CCC(=O)CC` ?
output: label 0

input: Could you check what this test reported for `CCCCOCCOC(=O)COc1ccc(Cl)cc1Cl` ?
output: label 0

input: Could you check what this test reported for `[O-][n+]1cccc(/C(Cl)=N/OC[C@@H](O)CN2CCCCC2)c1` ?
output: label 1

input: Could you check what this test reported for CC(C)C1OCCN1CCOC(=O)NCCCCCCNC(=O)OCCN1CCOC1C(C)C (centres undefined) ?
output: label 1

input: Could you check what this test reported for `C/C=C(\C)C(C)=O` ?
output: label 0

input: Could you check what this test reported for `OC[C@H]1O[C@@H](O[C@@H]2[C@@H](CO)O[C@](O)(CO)[C@H]2O)[C@H](O)[C@@H](O)[C@H]1O` ?
output: label 0

input: Could you check what this test reported for `COC(=O)c1cc(Cl)cc(Cl)c1` ?
output: label 0

input: Could you check what this test reported for `Cc1c(Cl)cccc1Cl` ?
output: label 0

input: Could you check what this test reported for `C=CCOC(=O)CCCCCC` ?
output: label 0

* * *

Target: Peroxisome proliferator-activated receptor gamma (Homo sapiens) (UniProt P37231)
Sequence (P37231 whole entry, looked up): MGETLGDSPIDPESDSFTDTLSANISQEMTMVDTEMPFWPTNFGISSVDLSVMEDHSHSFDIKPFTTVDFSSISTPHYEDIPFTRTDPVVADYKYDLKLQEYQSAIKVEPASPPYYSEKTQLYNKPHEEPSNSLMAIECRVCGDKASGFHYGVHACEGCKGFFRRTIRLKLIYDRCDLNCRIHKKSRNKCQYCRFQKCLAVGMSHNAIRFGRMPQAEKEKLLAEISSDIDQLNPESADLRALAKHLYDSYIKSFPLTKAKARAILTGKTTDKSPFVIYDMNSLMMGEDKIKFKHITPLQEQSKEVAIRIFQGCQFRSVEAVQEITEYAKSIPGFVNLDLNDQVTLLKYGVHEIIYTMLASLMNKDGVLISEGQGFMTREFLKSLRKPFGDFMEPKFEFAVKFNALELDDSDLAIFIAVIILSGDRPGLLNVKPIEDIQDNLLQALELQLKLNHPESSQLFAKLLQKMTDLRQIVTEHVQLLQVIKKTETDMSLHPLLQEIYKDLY
Assay: qHTS assay to identify small molecule agonists of the peroxisome proliferator-activated receptor gamma (PPARg) signaling pathway (AID 743094); for activation: % is set by controls: 0 for no effect and ±100 for the full control effect
Settings: HEK293H PPARg-UAS-bla, beta-lactamase FRET ratio, 17 h; series mostly up to 57 µM
From the text: U.S. Tox21 Program National Center for Advancing Translational Sciences [NCATS] NIH Chemical Genomics Center [NCGC] U.S. Environmental Protection Agency [EPA] National Institutes of Environmental Health Sciences [NIEHS] National Toxicology Program [NTP] U.S. Food and Drug Administration [FDA] […]
Results filed as inconclusive are left out. Calls of active or inactive are those of the source. Calls follow the shape of the dose curve; as a rule, active = well fitted activation curve with a large enough effect in the signal ratio in the repeat runs (not every such curve was filed as active); inconclusive = weak or mixed curves, or effect the other way; inactive = no such curve, though single readings can be large or run the other way; the % refers to the signal ratio.
Value Kind: outcome

Molecule | Tested On | outcome
CCCCOCCOC(=O)COc1ccc(Cl)cc1Cl | Peroxisome proliferator-activated receptor gamma (Homo sapiens) (UniProt P37231) | inactive
O=C=NCC1CCCC(CN=C=O)C1 (stereo not given) | Peroxisome proliferator-activated receptor gamma (Homo sapiens) (UniProt P37231) | inactive
CC(C)OC(=O)OCOP(=O)(CO[C@H](C)Cn1cnc2c(N)ncnc21)OCOC(=O)OC(C)C | Peroxisome proliferator-activated receptor gamma (Homo sapiens) (UniProt P37231) | inactive
Cc1ccc(C(=O)O)cc1[N+](=O)[O-] | Peroxisome proliferator-activated receptor gamma (Homo sapiens) (UniProt P37231) | inactive
COc1ccc2c(c1)c1c3n2CCN(C)C3=NCC1 | Peroxisome proliferator-activated receptor gamma (Homo sapiens) (UniProt P37231) | inactive
OC[C@@H](O)C(O)[C@@H](O)CO (stereo not given in full) | Peroxisome proliferator-activated receptor gamma (Homo sapiens) (UniProt P37231) | inactive

For every listed record, write down its outcome.
1. c1ccc(B(c2ccccc2)c2ccccc2)cc1
2. C=CCCCCCCCC
3. Cn1nnc2c(C(N)=O)ncn2c1=O

output:
1: inactive; 2: inactive; 3: inactive

input: Give its outcome value. Item: `O=NN(CCCl)C(=O)NC1CCCCC1`
output: inactive
